- Measurement target: T1, human VPAC2 receptor (human, UniProt P41587 24-438)
- T1 construct: whole, on cells; cAMP Alpha screen assay: whole cells
- T1 sequence (looked up): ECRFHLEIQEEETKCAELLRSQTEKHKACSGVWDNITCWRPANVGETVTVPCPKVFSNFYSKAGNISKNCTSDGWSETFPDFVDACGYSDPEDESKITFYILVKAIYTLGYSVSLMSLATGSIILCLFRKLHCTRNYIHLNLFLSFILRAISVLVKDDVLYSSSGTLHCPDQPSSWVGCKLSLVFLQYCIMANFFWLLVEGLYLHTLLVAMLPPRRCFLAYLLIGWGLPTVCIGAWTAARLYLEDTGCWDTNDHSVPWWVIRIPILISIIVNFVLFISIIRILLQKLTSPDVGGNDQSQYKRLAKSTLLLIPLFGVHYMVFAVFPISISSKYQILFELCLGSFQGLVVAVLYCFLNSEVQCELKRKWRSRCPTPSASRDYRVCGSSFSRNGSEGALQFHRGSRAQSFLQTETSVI
- Assay remarks: filter binding assay, human VPAC2 membranes, displacement of 125I-VIP
Square brackets hold non-standard residues; d marks the D form. Ends that are not written are not given here. Nle = CCCC[C@H](N)C(=O)O; Aib = CC(C)(N)C(=O)O
Test readout: pIC50
Would you please state pIC50, meaning minus log10 of the concentration in mol/L, as a bare number?

Example binders with recorded pIC50:
HSDAVFTENYTKL[Aib]KQ[Nle]AAKKYLNDLKQKGGPSSGAPPPC (also: further groups not given here) [P274 (cyclic PEGylated VPAC2 receptor peptide agonist)]
6.90
HSDAVFTENYTKL[Aib]KQ[Nle]AAKKYLNDLKKGGPSSGAPPPC (ends and bridges not checked; also: further groups not given here) [P257 (cyclic PEGylated VPAC2 receptor peptide agonist)]
7.49
HSDAVFTENYTKLR[Aib]Q[Nle]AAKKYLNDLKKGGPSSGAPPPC (also: further groups not given here) [P279 (cyclic PEGylated VPAC2 receptor peptide agonist)]
8.14

Now look at this one.
Asked: Recorded pIC50 of HSDAVFTENYTKLRKQ[Nle]AAKKYLNDLKQGGPSSGAPPPC (ends and bridges not checked; also: further groups not given here) [P239 (cyclic PEGylated VPAC2 receptor peptide agonist)] , please.
Given back: 8.08
